Listed below: inhibition values for each entry.
Biological target: Growth factor receptor-bound protein 2 (Mus musculus) (UniProt Q60631)
Sequence (Q60631 whole entry): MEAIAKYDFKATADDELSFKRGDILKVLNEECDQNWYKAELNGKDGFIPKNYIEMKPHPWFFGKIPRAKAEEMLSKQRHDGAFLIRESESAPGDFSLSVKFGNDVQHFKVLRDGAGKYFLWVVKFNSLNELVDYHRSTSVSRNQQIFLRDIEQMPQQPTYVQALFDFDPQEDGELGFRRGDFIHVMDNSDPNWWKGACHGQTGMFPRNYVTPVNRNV
Assay: In vitro inhibitory activity against Shc/Grb2 interactions in B104-1-1 cells at 2 uM
Type: functional, cell-based

[
  {
    "Compound": "Cc1c2oc3c(C)ccc(C(=O)N[C@@H]4C(=O)N[C@H](C(C)C)C(=O)N5CCC[C@H]5C(=O)N(C)CC(=O)N[C@@H](Cc5ccc(O)cc5)C(=O)O[C@@H]4C)c3nc-2c(C(=O)N[C@@H]2C(=O)N[C@H](C(C)C)C(=O)N3CCC[C@H]3C(=O)N(C)CC(=O)N[C@@H](Cc3ccc(O)cc3)C(=O)O[C@@H]2C)c(N)c1=O (stereo in doubt; 8)",
    "inhibition [%]": 15.9
  },
  {
    "Compound": "Cc1c2oc3c(C)ccc(C(=O)N[C@@H]4C(=O)N[C@H](C(C)C)C(=O)N5CCC[C@H]5C(=O)N(C)CC(=O)N[C@H](Cc5ccccc5)C(=O)O[C@@H]4C)c3nc-2c(C(=O)N[C@@H]2C(=O)N[C@H](C(C)C)C(=O)N3CCC[C@H]3C(=O)N(C)CC(=O)N[C@H](Cc3ccccc3)C(=O)O[C@@H]2C)c(N)c1=O",
    "inhibition [%]": 75.1
  },
  {
    "Compound": "Cc1c2oc3c(C)ccc(C(=O)N[C@@H]4C(=O)N[C@H](Cc5ccccc5)C(=O)N5CCC[C@H]5C(=O)N(C)CC(=O)N[C@@H](C(C)C)C(=O)O[C@@H]4C)c3nc-2c(C(=O)N[C@@H]2C(=O)N[C@H](Cc3ccccc3)C(=O)N3CCC[C@H]3C(=O)N(C)CC(=O)N[C@@H](C(C)C)C(=O)O[C@@H]2C)c(N)c1=O",
    "inhibition [%]": 73.6
  }
]

###

Target: Growth factor receptor-bound protein 2 (Mus musculus) (UniProt Q60631)
Assay: In vitro inhibitory activity against Shc/Grb2 interactions in B104-1-1 cells at 2 uM
Type: functional, cell-based
Measured Property: inhibition (%)

[
  {
    "Compound Structure String": "Cc1c2oc3c(C)ccc(C(=O)N[C@@H]4C(=O)N[C@H](C(C)C)C(=O)N5CCC[C@H]5C(=O)N(C)CC(=O)N[C@@H](Cc5ccccc5)C(=O)O[C@@H]4C)c3nc-2c(C(=O)N[C@@H]2C(=O)N[C@H](C(C)C)C(=O)N3CCC[C@H]3C(=O)N(C)CC(=O)N[C@@H](Cc3ccccc3)C(=O)O[C@@H]2C)c(N)c1=O",
    "Val": 56.8
  },
  {
    "Compound Structure String": "COc1ccc(C[C@@H]2NC(=O)CN(C)C(=O)[C@@H]3CCCN3C(=O)[C@@H](C(C)C)NC(=O)[C@@H](NC(=O)c3c4nc5c(C(=O)N[C@@H]6C(=O)N[C@H](C(C)C)C(=O)N7CCC[C@H]7C(=O)N(C)CC(=O)N[C@@H](Cc7ccc(OC)cc7)C(=O)O[C@@H]6C)ccc(C)c5oc-4c(C)c(=O)c3N)[C@@H](C)OC2=O)cc1",
    "Val": 55.1
  }
]

###

Biological target: Growth factor receptor-bound protein 2 (Mus musculus, UniProt Q60631)
Sequence (Q60631 whole entry): as above
Test: In vitro binding assay of Shc-derived phosphopeptide to Growth factor receptor bound protein 2 SH2 in B104-1-1 cells was determined
pIC50: −log10 of the molar value.
Measured Property: pIC50

[
  {
    "Compound": "COc1ccc(C[C@@H]2NC(=O)CN(C)C(=O)[C@@H]3CCCN3C(=O)[C@@H](C(C)C)NC(=O)[C@@H](NC(=O)c3c4nc5c(C(=O)N[C@@H]6C(=O)N[C@H](C(C)C)C(=O)N7CCC[C@H]7C(=O)N(C)CC(=O)N[C@@H](Cc7ccc(OC)cc7)C(=O)O[C@@H]6C)ccc(C)c5oc-4c(C)c(=O)c3N)[C@@H](C)OC2=O)cc1",
    "Val": 5.70
  },
  {
    "Compound": "Cc1c2oc3c(C)ccc(C(=O)N[C@@H]4C(=O)N[C@H](C(C)C)C(=O)N5CCC[C@H]5C(=O)N(C)CC(=O)N[C@@H](Cc5ccccc5)C(=O)O[C@@H]4C)c3nc-2c(C(=O)N[C@@H]2C(=O)N[C@H](C(C)C)C(=O)N3CCC[C@H]3C(=O)N(C)CC(=O)N[C@@H](Cc3ccccc3)C(=O)O[C@@H]2C)c(N)c1=O",
    "Val": 5.74
  },
  {
    "Compound": "CC[C@@H](C)[C@H]1NC(=O)CN(C)C(=O)[C@@H]2CCCN2C(=O)[C@@H]([C@H](C)CC)NC(=O)[C@@H](NC(=O)c2c3nc4c(C(=O)N[C@@H]5C(=O)N[C@H]([C@H](C)CC)C(=O)N6CCC[C@H]6C(=O)N(C)CC(=O)N[C@H]([C@H](C)CC)C(=O)O[C@@H]5C)ccc(C)c4oc-3c(C)c(=O)c2N)[C@@H](C)OC1=O",
    "Val": 5.12
  },
  {
    "Compound": "Cc1c2oc3c(C)ccc(C(=O)N[C@@H]4C(=O)N[C@H](C(C)C)C(=O)N5CCC[C@H]5C(=O)N(C)CC(=O)N[C@H](Cc5ccc(O)cc5)C(=O)O[C@@H]4C)c3nc-2c(C(=O)N[C@@H]2C(=O)N[C@H](C(C)C)C(=O)N3CCC[C@H]3C(=O)N(C)CC(=O)N[C@H](Cc3ccc(O)cc3)C(=O)O[C@@H]2C)c(N)c1=O (stereo in doubt; 12)",
    "Val": 6.10
  }
]
